Molecular target: Platelet-derived growth factor receptor beta (Homo sapiens, UniProt P09619)
Sequence (P09619 whole entry): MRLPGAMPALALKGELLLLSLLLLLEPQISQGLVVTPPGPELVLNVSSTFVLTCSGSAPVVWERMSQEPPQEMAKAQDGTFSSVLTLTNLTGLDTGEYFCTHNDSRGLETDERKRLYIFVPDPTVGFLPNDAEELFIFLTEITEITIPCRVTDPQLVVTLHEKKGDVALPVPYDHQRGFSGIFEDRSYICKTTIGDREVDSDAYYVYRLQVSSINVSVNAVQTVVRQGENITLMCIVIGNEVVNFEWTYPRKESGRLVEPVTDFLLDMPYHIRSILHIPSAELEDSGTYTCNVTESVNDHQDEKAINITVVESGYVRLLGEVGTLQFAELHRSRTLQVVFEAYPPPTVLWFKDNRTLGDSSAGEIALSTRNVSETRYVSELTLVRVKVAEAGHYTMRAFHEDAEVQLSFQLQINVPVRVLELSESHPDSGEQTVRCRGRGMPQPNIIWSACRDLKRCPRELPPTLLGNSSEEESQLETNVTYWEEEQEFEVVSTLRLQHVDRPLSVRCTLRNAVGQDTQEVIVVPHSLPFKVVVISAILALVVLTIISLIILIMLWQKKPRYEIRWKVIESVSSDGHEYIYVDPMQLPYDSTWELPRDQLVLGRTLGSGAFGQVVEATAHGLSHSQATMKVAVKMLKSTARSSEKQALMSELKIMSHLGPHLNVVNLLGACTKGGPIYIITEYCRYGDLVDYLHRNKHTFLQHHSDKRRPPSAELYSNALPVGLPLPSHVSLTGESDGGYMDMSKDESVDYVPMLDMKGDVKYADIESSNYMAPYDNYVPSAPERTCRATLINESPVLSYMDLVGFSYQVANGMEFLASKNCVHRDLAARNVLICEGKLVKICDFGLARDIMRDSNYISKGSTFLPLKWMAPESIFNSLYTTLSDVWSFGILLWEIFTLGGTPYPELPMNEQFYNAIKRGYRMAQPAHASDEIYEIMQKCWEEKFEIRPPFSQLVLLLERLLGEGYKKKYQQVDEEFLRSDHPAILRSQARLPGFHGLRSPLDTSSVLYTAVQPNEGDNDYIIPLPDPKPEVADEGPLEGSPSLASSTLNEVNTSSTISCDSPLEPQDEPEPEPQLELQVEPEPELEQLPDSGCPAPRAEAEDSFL
Assay: Inhibition of Platelet-derived growth factor receptor beta autophosphorylation in PAE cells
Assay type: cell-based, Sus scrofa
Assignment: determine reported pIC50 for the given compounds.
Reminder that pIC50 means the negative base-10 logarithm of the concentration expressed in mol/L.

What the record says about `COCC(=O)Oc1ccc2[nH]c(C(=O)c3cc4ccccc4[nH]3)cc2c1` : pIC50 is 7.00

What the record says about `CC(=O)Oc1ccc2[nH]c(C(=O)c3cc4ccccc4[nH]3)cc2c1` : pIC50 is 5.31

What the record says about `CN(C)CC(=O)Oc1ccc2[nH]c(C(=O)c3cc4ccccc4[nH]3)cc2c1` : pIC50 is 7.00

What the record says about `O=C(c1cc2ccccc2[nH]1)c1cc2cc(O)ccc2[nH]1` : pIC50 is 6.70
